method-summary: DCF clearance / PK in the LiverChip, one-compartment model
Assay type: in vitro ADME
setup-conditions: human
readout-type: half-life at 4.4 µM (h)
Respond with the bare value in h.

Q) Provide half-life at 4.4 µM value for the following compound: `O=C(O)Cc1ccccc1Nc1c(Cl)cccc1Cl`
A) 14.6

Origin of values: paper PMC5469400
